Molecular target: VEGF/GAG (glycosaminoglycan) (Homo sapiens)
Sequence (P15692 1-191 isoform P15692-4): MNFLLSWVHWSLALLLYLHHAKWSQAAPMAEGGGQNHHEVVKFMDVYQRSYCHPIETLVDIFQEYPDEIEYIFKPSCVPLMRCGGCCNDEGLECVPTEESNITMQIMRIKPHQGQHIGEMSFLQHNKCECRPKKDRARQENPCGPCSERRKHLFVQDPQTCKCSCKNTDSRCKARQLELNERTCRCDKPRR
Experiment: in vitro inhibition of VEGF/GAG (glycosaminoglycan) binding ([125I]heparin-16-mer / VEGF165 filter binding)
Settings: purified VEGF165 20 nM, 60 minutes at room temperature, 0.16% DMSO
pIC50: −log10 of the molar value.
MEASURED_ENDPOINT: pIC50

COMPOUND	ASSAY_RESULT
COc1ccccc1C1CC(NC(=O)Nc2cccc(-c3nnn[nH]3)c2)C(=O)N(CC(=O)NC2(C)CCCCC2)C(c2ccccc2)C1 (stereo not shown)	5.72

P: Cc1cccc(NC(=O)NC2CC(c3ccccc3C)CC(c3ccccc3)N(CC(=O)O)C2=O)c1 (stereo not shown)
Q: COc1ccccc1C1CC(NC(=O)Nc2cccc(C(=O)Nc3nnn[nH]3)c2)C(=O)N(CC(=O)NC2(C)CCCCC2)C(c2ccccc2)C1 (stereo not shown)
## Task So which one has the bigger pIC50 here, P or Q ? Give the chosen item's label as your response.
## Result Q
(Q: 6.05, P: 5.62)
